Test system: Salmonella typhimurium
assay.overview: Antimicrobial activity against Salmonella Typhimurium at 1 umol/spot after 18 hrs by TLC-bioautographic method
Assay type: functional, Salmonella enterica subsp. enterica serovar Typhimurium
observable: inhibition zone (IZ) (millimeter)
Give bare numbers, in millimeter.

Reference set (4 entries):
{"compound": "CC(=O)N1N=C(c2ccc(Nc3nc(Nc4ccccc4)nc(Nc4ccccc4)n3)cc2)CC1c1ccc(Cl)cc1 (configuration not stated)", "readout.units": "millimeter", "recorded.measurement": 0.07}
{"compound": "N#Cc1c(-c2ccc(Cl)cc2)cc(-c2ccc(Nc3nc(Nc4ccccc4)nc(Nc4ccccc4)n3)cc2)nc1N", "readout.units": "millimeter", "recorded.measurement": 0.08}
{"compound": "N#Cc1c(-c2cccs2)cc(-c2ccc(Nc3nc(Nc4ccccc4)nc(Nc4ccccc4)n3)cc2)nc1N", "readout.units": "millimeter", "recorded.measurement": 0.07}
{"compound": "Nc1nc(-c2ccc(Nc3nc(Nc4ccccc4)nc(Nc4ccccc4)n3)cc2)cc(-c2cccs2)n1", "readout.units": "millimeter", "recorded.measurement": 0.09}

Please go through the list and note inhibition zone (IZ) for each compound.
1. COc1ccccc1-c1cc(-c2ccc(Nc3nc(Nc4ccccc4)nc(Nc4ccccc4)n3)cc2)nc(N)c1C#N
2. O=C(/C=C/c1ccc([N+](=O)[O-])cc1)c1ccc(Nc2nc(Nc3ccccc3)nc(Nc3ccccc3)n2)cc1
3. CC(=O)N1N=C(c2ccc(Nc3nc(Nc4ccccc4)nc(Nc4ccccc4)n3)cc2)CC1c1ccco1 (configuration not stated)
4. CN[C@@H]1[C@H](O[C@H]2[C@H](O[C@H]3[C@H](O)[C@@H](O)[C@H](N=C(N)N)[C@@H](O)[C@@H]3N=C(N)N)O[C@@H](C)[C@]2(O)C=O)O[C@@H](CO)[C@H](O)[C@H]1O
5. O=C(/C=C/c1ccc(Cl)cc1)c1ccc(Nc2nc(Nc3ccccc3)nc(Nc3ccccc3)n2)cc1
6. N#Cc1c(-c2ccco2)cc(-c2ccc(Nc3nc(Nc4ccccc4)nc(Nc4ccccc4)n3)cc2)nc1N

Result string:
[0.07, 0.08, 0.09, 0.08, 0.09, 0.07]

Please go through the list and note inhibition zone (IZ) for each compound.
1. Nc1nc(-c2ccc(Cl)cc2)cc(-c2ccc(Nc3nc(Nc4ccccc4)nc(Nc4ccccc4)n3)cc2)n1
2. CC(=O)N1N=C(c2ccc(Nc3nc(Nc4ccccc4)nc(Nc4ccccc4)n3)cc2)CC1c1ccc([N+](=O)[O-])cc1 (configuration not stated)

Result string:
1: 0.07; 2: 0.1

Origin of values: ChEMBL document CHEMBL1154716
